B1: INTS3 (parent)
chain: FSDDEEDLNSKGKKREFRFHPIKE

# Variants of: B1
# experimental_details: protein stability index of a GFP-peptide fusion (GPS, HEK-293T) (PSI 1-6); higher = more stable;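 also: lentivirally expressed fusions sorted by FACS into six bins by GFP to DsRed ratio, PSI derived from sequencing read proportions per bin multiplied by bin number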
# experimental_setup: c terminus: a fixed tail appended
Record form. Attribute: protein stability index. Fill in for each entry.
Give bare numbers.

E5S; 2.1
R18P; 4.76
F17C; 5.31
F19V; 5.1
S10D; 3.64
F17A; 5.13

Query: Fill in the blank: the reported protein stability index of D7E is ____.
Response: 3.14

Attribution: the supplement of paper PMC10567573
